B1: library; a variant is named by its letters at N, in order (parent)
chain: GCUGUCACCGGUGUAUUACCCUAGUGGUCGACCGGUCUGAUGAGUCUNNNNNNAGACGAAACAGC

Variants of: B1
TEST METHOD NOTES: normalized RNA/DNA level with ligand (relative to sTRSVctl = 100) (log10 (% of sTRSVctl)); ligand: hypoxanthine (xanthine aptamer); higher = less ribozyme self-cleavage, higher mRNA level
EXPERIMENTAL CONTEXT: ligand concentration (+) RNA-Seq: 5 mM, HEK293T, reporter: mCherry (pCS4076), ligand present: yes
VALUE TYPE: normalized RNA/DNA level with ligand (log10)
The answer should be a number; do not append a unit.

>  <VARIANT KEY>
UCUCCC

>  <REPORTED MEASUREMENT>
1.98

$$$$

Query: Please give the measured normalized RNA/DNA level with ligand (log10) for this variant: CGCCCC
Reply: 1.97

Query: Okay, and AAGCUC ?
Reply: 1.97

Query: Okay, and UUGAAA ?
Reply: 1.95
